biological target: DCTN6; experiment: pooled miR-30 sensor sort-seq; sequence = guide strand; details: shRNA; note: reference of the scale not given here
Entries and their sensor-assay potency score (higher = more potent)

Some sequences with recorded sensor-assay potency score (higher = more potent):
TTTCTACACATACAACTGCTCC : -0.672
TAAGAGTACATAAACACTGTGG : -0.0797
TTTCATAGTCTTCTTTAGGTGG : -0.245

# input for lookup
q: Data request, read-out sensor-assay potency score (higher = more potent), for TAATTCTTGCTTTAGGGTGGAT
a: -0.47

----------
molecular target: GPS1; assay: pooled miR-30 sensor sort-seq; sequence = guide strand; settings: shRNA
Outcome measure: sensor-assay potency score (higher = more potent)
API doc: respond with a numeric literal and nothing else, no unit.

// solved cases for sensor-assay potency score (higher = more potent) follow
TACTGTTCCAGATCCAGGCTGG : 0.176
TTGCGCTGCAGCTCCTGCCGGT : -0.804
TTGTAGTTCTTCAGGTCTGTGT : -0.35
TCCAGCTCCAAGAACAACTTGA : -0.994
AAGAACAACTTGAAGGAGCTGC : 0.981
TTGACATGGATCTGGTTGCGGA : -0.378
TTGAAGGCTGCCGCCATCCTAT : -1.18

Now let's try a different one.
q: Param readout= sensor-assay potency score (higher = more potent); system= GPS1; entry= TTGCTGTGTGAGTCCACACGGG ; returns value.
a: -0.414

Every entry's value here was drawn from the OligoGym collection.
